- System: Staphylococcus aureus
- EXPERIMENT_NOTES: Potency index, ratio of Norvancomycin MIC to test compound MIC for vancomycin-intermediate Staphylococcus aureus incubated for 16 to 24 hrs by CLSI based broth microdilution method
- Type: functional
- RECORDED_CONDITIONS: time 16-24 hrs
PROPERTY_MEASURED: Ratio

# Ratio (compound: CC(C)C[C@@H](N)C(=O)N[C@H]1C(=O)N[C@@H](CC(N)=O)C(=O)N[C@H]2C(=O)N[C@H]3C(=O)N[C@H](C(=O)N[C@H](C(=O)NCc4ccc(-c5ccc(CCNC(=N)N)cc5)cc4)c4cc(O)cc(O)c4-c4cc3ccc4O)[C@H](O)c3ccc(c(Cl)c3)Oc3cc2cc(c3O[C@@H]2O[C@H](CO)[C@@H](O)[C@H](O)[C@H]2O[C@H]2C[C@](C)(N)[C@H](O)[C@H](C)O2)Oc2ccc(cc2Cl)[C@H]1O ) is 2

# Ratio (compound: CN[C@H](CC(C)C)C(=O)N[C@H]1C(=O)N[C@@H](CC(N)=O)C(=O)N[C@H]2C(=O)N[C@H]3C(=O)N[C@H](C(=O)N[C@H](C(=O)NCc4ccc(-c5ccc(CNC(=N)N)cc5)cc4)c4cc(O)cc(O)c4-c4cc3ccc4O)[C@H](O)c3ccc(c(Cl)c3)Oc3cc2cc(c3O[C@@H]2O[C@H](CO)[C@@H](O)[C@H](O)[C@H]2O[C@H]2C[C@](C)(N)[C@H](O)[C@H](C)O2)Oc2ccc(cc2Cl)[C@H]1O ) is 2

# Ratio (compound: CC(C)C[C@@H](N)C(=O)N[C@H]1C(=O)N[C@@H](CC(N)=O)C(=O)N[C@H]2C(=O)N[C@H]3C(=O)N[C@H](C(=O)N[C@H](C(=O)NCc4ccc(-c5ccc(CNC(=N)N)cc5)cc4)c4cc(O)cc(O)c4-c4cc3ccc4O)[C@H](O)c3ccc(c(Cl)c3)Oc3cc2cc(c3O[C@@H]2O[C@H](CO)[C@@H](O)[C@H](O)[C@H]2O[C@H]2C[C@](C)(N)[C@H](O)[C@H](C)O2)Oc2ccc(cc2Cl)[C@H]1O ) is 2

====

- Tested on: Acinetobacter baumannii
- EXPERIMENT_NOTES: Antibacterial activity against Carbapenem-resistant Acinetobacter baumannii clinical isolate incubated for 16 to 24 hrs by CLSI based broth microdilution method
- Type: functional
- RECORDED_CONDITIONS: time 16-24 hrs
PROPERTY_MEASURED: MIC (µg/mL)
Field format: number, assumed µg/mL, no unit text.

# MIC (compound: CN[C@H](CC(C)C)C(=O)N[C@H]1C(=O)N[C@@H](CC(N)=O)C(=O)N[C@H]2C(=O)N[C@H]3C(=O)N[C@H](C(=O)N[C@H](C(=O)O)c4cc(O)cc(O)c4-c4cc3ccc4O)[C@H](O)c3ccc(c(Cl)c3)Oc3cc2cc(c3O[C@@H]2O[C@H](CO)[C@@H](O)[C@H](O)[C@H]2O[C@H]2C[C@](C)(NCc3ccc(-c4ccc(CN)cc4)cc3)[C@H](O)[C@H](C)O2)Oc2ccc(cc2Cl)[C@H]1O ) is 128

====

Could you please report measured MIC for the items listed next?
- Tested on: Acinetobacter baumannii
- EXPERIMENT_NOTES: Antibacterial activity against Carbapenem-resistant Acinetobacter baumannii clinical isolate incubated for 16 to 24 hrs by CLSI based broth microdilution method
- Format: functional
- RECORDED_CONDITIONS: time 16-24 hrs
Field format: number, assumed µg/mL, no unit text.

# MIC (molecule: CC(C)C[C@@H](N)C(=O)N[C@H]1C(=O)N[C@@H](CC(N)=O)C(=O)N[C@H]2C(=O)N[C@H]3C(=O)N[C@H](C(=O)N[C@H](C(=O)NCCc4ccc(-c5ccc(CNC(=N)N)cc5)cc4)c4cc(O)cc(O)c4-c4cc3ccc4O)[C@H](O)c3ccc(c(Cl)c3)Oc3cc2cc(c3O[C@@H]2O[C@H](CO)[C@@H](O)[C@H](O)[C@H]2O[C@H]2C[C@](C)(N)[C@H](O)[C@H](C)O2)Oc2ccc(cc2Cl)[C@H]1O ) is 128

# MIC (molecule: CC(C)C[C@@H](N)C(=O)N[C@H]1C(=O)N[C@@H](CC(N)=O)C(=O)N[C@H]2C(=O)N[C@H]3C(=O)N[C@H](C(=O)N[C@H](C(=O)O)c4cc(O)c(CNCCCCCCCCNC(=N)N)c(O)c4-c4cc3ccc4O)[C@H](O)c3ccc(c(Cl)c3)Oc3cc2cc(c3O[C@@H]2O[C@H](CO)[C@@H](O)[C@H](O)[C@H]2O[C@H]2C[C@](C)(N)[C@H](O)[C@H](C)O2)Oc2ccc(cc2Cl)[C@H]1O ) is 128

# MIC (molecule: CN[C@H](CC(C)C)C(=O)N[C@H]1C(=O)N[C@@H](CC(N)=O)C(=O)N[C@H]2C(=O)N[C@H]3C(=O)N[C@H](C(=O)N[C@H](C(=O)NCCc4ccc(-c5ccc(CN)cc5)cc4)c4cc(O)cc(O)c4-c4cc3ccc4O)[C@H](O)c3ccc(c(Cl)c3)Oc3cc2cc(c3O[C@@H]2O[C@H](CO)[C@@H](O)[C@H](O)[C@H]2O[C@H]2C[C@](C)(N)[C@H](O)[C@H](C)O2)Oc2ccc(cc2Cl)[C@H]1O ) is 32

# MIC (molecule: CN[C@H](CC(C)C)C(=O)N[C@H]1C(=O)N[C@@H](CC(N)=O)C(=O)N[C@H]2C(=O)N[C@H]3C(=O)N[C@H](C(=O)N[C@H](C(=O)NCc4ccc(-c5ccc(CCN)cc5)cc4)c4cc(O)cc(O)c4-c4cc3ccc4O)[C@H](O)c3ccc(c(Cl)c3)Oc3cc2cc(c3O[C@@H]2O[C@H](CO)[C@@H](O)[C@H](O)[C@H]2O[C@H]2C[C@](C)(N)[C@H](O)[C@H](C)O2)Oc2ccc(cc2Cl)[C@H]1O ) is 32

# MIC (molecule: CC(C)C[C@@H](N)C(=O)N[C@H]1C(=O)N[C@@H](CC(N)=O)C(=O)N[C@H]2C(=O)N[C@H]3C(=O)N[C@H](C(=O)N[C@H](C(=O)NCc4ccc(CNC(=N)N)cc4)c4cc(O)cc(O)c4-c4cc3ccc4O)[C@H](O)c3ccc(c(Cl)c3)Oc3cc2cc(c3O[C@@H]2O[C@H](CO)[C@@H](O)[C@H](O)[C@H]2O[C@H]2C[C@](C)(N)[C@H](O)[C@H](C)O2)Oc2ccc(cc2Cl)[C@H]1O ) is 32

====

- System: Klebsiella pneumoniae
- EXPERIMENT_NOTES: Antibacterial activity against Klebsiella pneumoniae clinical isolate incubated for 16 to 24 hrs by CLSI based broth microdilution method
- Format: functional
- RECORDED_CONDITIONS: time 16-24 hrs
Could you please report measured MIC for the items listed next?

# MIC (molecule: CN[C@H](CC(C)C)C(=O)N[C@H]1C(=O)N[C@@H](CC(N)=O)C(=O)N[C@H]2C(=O)N[C@H]3C(=O)N[C@H](C(=O)N[C@H](C(=O)NCCCCCCCCNC(=N)N)c4cc(O)cc(O)c4-c4cc3ccc4O)[C@H](O)c3ccc(c(Cl)c3)Oc3cc2cc(c3O[C@@H]2O[C@H](CO)[C@@H](O)[C@H](O)[C@H]2O[C@H]2C[C@](C)(N)[C@H](O)[C@H](C)O2)Oc2ccc(cc2Cl)[C@H]1O ) is 128 µg/mL

# MIC (molecule: CC(C)C[C@@H](N)C(=O)N[C@H]1C(=O)N[C@@H](CC(N)=O)C(=O)N[C@H]2C(=O)N[C@H]3C(=O)N[C@H](C(=O)N[C@H](C(=O)NCCCCCCNC(=N)N)c4cc(O)cc(O)c4-c4cc3ccc4O)[C@H](O)c3ccc(c(Cl)c3)Oc3cc2cc(c3O[C@@H]2O[C@H](CO)[C@@H](O)[C@H](O)[C@H]2O[C@H]2C[C@](C)(N)[C@H](O)[C@H](C)O2)Oc2ccc(cc2Cl)[C@H]1O ) is > 128 µg/mL

# MIC (molecule: CC(C)C[C@@H](N)C(=O)N[C@H]1C(=O)N[C@@H](CC(N)=O)C(=O)N[C@H]2C(=O)N[C@H]3C(=O)N[C@H](C(=O)N[C@H](C(=O)O)c4cc(O)cc(O)c4-c4cc3ccc4O)[C@H](O)c3ccc(c(Cl)c3)Oc3cc2cc(c3O[C@@H]2O[C@H](CO)[C@@H](O)[C@H](O)[C@H]2O[C@H]2C[C@](C)(N)[C@H](O)[C@H](C)O2)Oc2ccc(cc2Cl)[C@H]1O ) is > 128 µg/mL

# MIC (molecule: CC(C)C[C@@H](N)C(=O)N[C@H]1C(=O)N[C@@H](CC(N)=O)C(=O)N[C@H]2C(=O)N[C@H]3C(=O)N[C@H](C(=O)N[C@H](C(=O)NCc4ccc(-c5ccc(CCN)cc5)cc4)c4cc(O)cc(O)c4-c4cc3ccc4O)[C@H](O)c3ccc(c(Cl)c3)Oc3cc2cc(c3O[C@@H]2O[C@H](CO)[C@@H](O)[C@H](O)[C@H]2O[C@H]2C[C@](C)(N)[C@H](O)[C@H](C)O2)Oc2ccc(cc2Cl)[C@H]1O ) is > 128 µg/mL

# MIC (molecule: CC(C)C[C@@H](N)C(=O)N[C@H]1C(=O)N[C@@H](CC(N)=O)C(=O)N[C@H]2C(=O)N[C@H]3C(=O)N[C@H](C(=O)N[C@H](C(=O)NCCc4ccc(-c5ccc(CNC(=N)N)cc5)cc4)c4cc(O)cc(O)c4-c4cc3ccc4O)[C@H](O)c3ccc(c(Cl)c3)Oc3cc2cc(c3O[C@@H]2O[C@H](CO)[C@@H](O)[C@H](O)[C@H]2O[C@H]2C[C@](C)(N)[C@H](O)[C@H](C)O2)Oc2ccc(cc2Cl)[C@H]1O ) is > 128 µg/mL

The reported numbers originate from ChEMBL document CHEMBL6127119.
